Value source: ChEMBL document CHEMBL5665443

testedOn: G/T mismatch-specific thymine DNA glycosylase (Homo sapiens)
experimentalContext: Compound Concentration 10.0 uM, Hit No
Description: Inhibition of TDG by quantifying inhibition of TDG-mediated cleavage and dissociation of quenched duplex DNA oligonucleotides, measured as fluorescence at 594 nm. To generate a functional strand incision and increase turn-over this assay is coupled to APE1.
observable: inhibition (%)
Value expressed in %; do not type the unit.

Examples from the recorded data:
# compound, valueObserved
data = [
    ("CC1CCN(CC[C@H]2CCCN2S(=O)(=O)c2cccc(O)c2)CC1", 2.43),
    ("O=C1NCN(c2ccccc2)C12CCN(CC1COc3ccccc3O1)CC2 (configuration not stated)", 2.98),
    ("Nc1ncnc2c1ncn2[C@@H]1O[C@H](COP(=O)(O)OP(=O)(O)O)[C@@H](O)[C@H]1O", 26.4),
    ("Cc1cccc(CCN2CCC(C(=O)c3ccc(NS(C)(=O)=O)cc3)CC2)n1", 11.1),
    ("CNC[C@H](O)c1ccc(O)c(O)c1", 37.5),
    ("Cc1cc(-n2nc(Cc3cc(F)cc(C(F)(F)F)c3)nc2C)ccc1C(N)=O", 97.3),
]

Please find the next compound below.
Q: Fill blank: measured inhibition of the compound CCc1nc2c(o1)CC(c1ccc(C)cc1C)CC2=O (configuration not stated) is ____.
A: 16.4

---

testedOn: Endonuclease 8-like 2 (Homo sapiens) (UniProt Q969S2)
Sequence (Q969S2 whole entry): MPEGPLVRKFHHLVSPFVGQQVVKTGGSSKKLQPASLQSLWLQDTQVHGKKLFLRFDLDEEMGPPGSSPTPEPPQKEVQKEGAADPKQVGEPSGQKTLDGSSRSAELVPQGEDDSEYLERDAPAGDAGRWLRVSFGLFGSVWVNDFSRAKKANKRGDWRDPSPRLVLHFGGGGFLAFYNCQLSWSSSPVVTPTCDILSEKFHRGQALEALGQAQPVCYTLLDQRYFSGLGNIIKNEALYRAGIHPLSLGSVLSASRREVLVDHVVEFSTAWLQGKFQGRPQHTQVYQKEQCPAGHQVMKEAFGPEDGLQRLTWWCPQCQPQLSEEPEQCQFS
experimentalContext: Compound Concentration 10.0 uM, Hit No
Description: Inhibition of NEIL2 by quantifying inhibition of NEIL2-mediated cleavage and dissociation of quenched duplex DNA oligonucleotides, measured as fluorescence at 594 nm.
observable: inhibition
// return the numeric value with its unit appended

Example entries and their recorded answers appear below.
# smilesCode, observable, valueObserved
measured = [
    ("Cc1cc(C)c(S(=O)(=O)N(Cc2ccc(-c3cccc(S(C)(=O)=O)c3)cc2)Cc2ccc(C(F)(F)F)o2)c(C)c1", "inhibition", "-8.4%"),
    ("CN1CCC(c2c[nH]c3ccc(O)cc23)CC1", "inhibition", "-2.39%"),
    ("CC(C)NC(=O)N1CC[C@H](NC2=Nc3cc(F)ccc3N(CC(F)F)c3ccc(Cl)cc32)C1", "inhibition", "-0.0337%"),
    ("C[C@@H](O[C@H]1OCCN(Cc2n[nH]c(=O)[nH]2)[C@H]1c1ccc(F)cc1)c1cc(C(F)(F)F)cc(C(F)(F)F)c1", "inhibition", "8.5%"),
    ("FC(F)(F)c1ccc(N2CCNCC2)nc1Cl", "inhibition", "-1.62%"),
]

Turning now to a further record.
Q: API: value(readout= inhibition, system= Endonuclease 8-like 2 (Homo sapiens) (UniProt Q969S2), query= O=C(O)CCc1ccc(NCc2cccc(Oc3ccccc3)c2)cc1 );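 note: fluorescence at 594 nm reports NEIL2 cutting and release of a quenched double-stranded DNA oligo substrate, reduced signal read as inhibition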
A: -9.01%

---

testedOn: Adenine DNA glycosylase (Homo sapiens)
experimentalContext: Compound Concentration 1.0 uM, Hit No
Description: Inhibition of MUTYH by quantifying inhibition of MUTYH-mediated cleavage and dissociation of quenched duplex DNA oligonucleotides, measured as fluorescence at 594 nm. To generate a functional strand incision and increase turn-over this assay is coupled to APE1.
Catalogue of compounds with associated inhibition
Expressed in %, but write only the number.

# compound, testedOn, inhibition (%)
measured = [
    ("CN1C(=O)[C@@H](N2CCc3cn(Cc4ccccc4)nc3C2=O)COc2ccccc21", "Adenine DNA glycosylase (Homo sapiens)", 5.54),
    ("Cn1cc(-c2[nH]c3cc(NC(=O)[C@H](N)C4CCCCC4)cc4c3c2C=NNC4=O)cn1", "Adenine DNA glycosylase (Homo sapiens)", -0.0556),
    ("CCc1ccccc1C(=O)Nc1n[nH]c2c(C)c(F)c(C3C(C#N)=C(C)N(C)C(C)=C3C#N)cc12", "Adenine DNA glycosylase (Homo sapiens)", 6.2),
    ("O=C(Cc1ccccc1)Nc1nnc(N2C[C@H]3C[C@@H]2CN3c2cccnn2)s1", "Adenine DNA glycosylase (Homo sapiens)", -1.58),
    ("COc1ncc(-c2ccc3nccc(-c4ccnnc4)c3c2)cc1NS(=O)(=O)c1ccc(F)cc1F", "Adenine DNA glycosylase (Homo sapiens)", 13.2),
]

Q: What measured inhibition is associated with CC1=C(C#N)C(c2ccc3c(c2)c(NC(=O)c2ccccc2C)nn3C)C(C#N)=C(C)N1 on Adenine DNA glycosylase (Homo sapiens)?
A: -2.97

Q: Look up inhibition with Adenine DNA glycosylase (Homo sapiens) for this compound: CS(=O)(=O)N1CCCC(NC(=O)[C@H](CCC2CCCCC2)NC(=O)c2ccc(CNC(=O)c3cnc4ccccn34)cc2)C1 (some centres not stated)
A: -1.13
